Entry source: the supplement of paper PMC10567573

B1: SMTNL2 (parent)
chain: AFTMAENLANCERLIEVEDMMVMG

- Variants of: B1
- EXPERIMENT_SUMMARY: protein stability index of a GFP-peptide fusion (GPS, HEK-293T) (PSI 1-6); higher = more stable;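 note: lentivirally expressed fusions sorted by FACS into six bins by GFP to DsRed ratio, PSI derived from sequencing read proportions per bin multiplied by bin number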
- CONDITION_CONTEXT: c terminus: a fixed tail appended

[
  {
    "VARIANT_DESIGNATION": "G24M",
    "protein stability index": 1.96
  },
  {
    "VARIANT_DESIGNATION": "A9Q",
    "protein stability index": 2.91
  },
  {
    "VARIANT_DESIGNATION": "M23S",
    "protein stability index": 2.69
  },
  {
    "VARIANT_DESIGNATION": "D19W",
    "protein stability index": 4.57
  },
  {
    "VARIANT_DESIGNATION": "R13H",
    "protein stability index": 3.03
  },
  {
    "VARIANT_DESIGNATION": "F2G",
    "protein stability index": 4
  },
  {
    "VARIANT_DESIGNATION": "T3R",
    "protein stability index": 2.11
  },
  {
    "VARIANT_DESIGNATION": "E6Q",
    "protein stability index": 1.3
  },
  {
    "VARIANT_DESIGNATION": "L8C",
    "protein stability index": 3.81
  },
  {
    "VARIANT_DESIGNATION": "M20I",
    "protein stability index": 2.03
  },
  {
    "VARIANT_DESIGNATION": "C11I",
    "protein stability index": 2.3
  },
  {
    "VARIANT_DESIGNATION": "N10G",
    "protein stability index": 2.79
  },
  {
    "VARIANT_DESIGNATION": "L8G",
    "protein stability index": 4.02
  },
  {
    "VARIANT_DESIGNATION": "D19T",
    "protein stability index": 1.94
  },
  {
    "VARIANT_DESIGNATION": "I15C",
    "protein stability index": 3.64
  },
  {
    "VARIANT_DESIGNATION": "T3F",
    "protein stability index": 1.71
  },
  {
    "VARIANT_DESIGNATION": "E6R",
    "protein stability index": 1.51
  },
  {
    "VARIANT_DESIGNATION": "N10Y",
    "protein stability index": 2.07
  },
  {
    "VARIANT_DESIGNATION": "M21I",
    "protein stability index": 1.98
  },
  {
    "VARIANT_DESIGNATION": "E16T",
    "protein stability index": 1.72
  },
  {
    "VARIANT_DESIGNATION": "M23F",
    "protein stability index": 1.54
  },
  {
    "VARIANT_DESIGNATION": "M4R",
    "protein stability index": 3.22
  },
  {
    "VARIANT_DESIGNATION": "G24V",
    "protein stability index": 1.03
  },
  {
    "VARIANT_DESIGNATION": "C11M",
    "protein stability index": 2.95
  },
  {
    "VARIANT_DESIGNATION": "A5P",
    "protein stability index": 3.44
  },
  {
    "VARIANT_DESIGNATION": "A5N",
    "protein stability index": 2.7
  },
  {
    "VARIANT_DESIGNATION": "F2E",
    "protein stability index": 4.17
  },
  {
    "VARIANT_DESIGNATION": "R13A",
    "protein stability index": 2.33
  },
  {
    "VARIANT_DESIGNATION": "E16S",
    "protein stability index": 1.89
  },
  {
    "VARIANT_DESIGNATION": "L14P",
    "protein stability index": 3.69
  },
  {
    "VARIANT_DESIGNATION": "A5I",
    "protein stability index": 3.19
  },
  {
    "VARIANT_DESIGNATION": "A5G",
    "protein stability index": 3.11
  },
  {
    "VARIANT_DESIGNATION": "M23T",
    "protein stability index": 1.8
  },
  {
    "VARIANT_DESIGNATION": "V17Q",
    "protein stability index": 2.43
  },
  {
    "VARIANT_DESIGNATION": "A5C",
    "protein stability index": 2.27
  },
  {
    "VARIANT_DESIGNATION": "F2D",
    "protein stability index": 4.48
  },
  {
    "VARIANT_DESIGNATION": "M4Q",
    "protein stability index": 4.04
  },
  {
    "VARIANT_DESIGNATION": "E12W",
    "protein stability index": 2.71
  },
  {
    "VARIANT_DESIGNATION": "E12Q",
    "protein stability index": 2.41
  },
  {
    "VARIANT_DESIGNATION": "M23I",
    "protein stability index": 1.47
  },
  {
    "VARIANT_DESIGNATION": "L14Y",
    "protein stability index": 2.13
  },
  {
    "VARIANT_DESIGNATION": "M21W",
    "protein stability index": 1.9
  },
  {
    "VARIANT_DESIGNATION": "E6T",
    "protein stability index": 1.74
  },
  {
    "VARIANT_DESIGNATION": "E18S",
    "protein stability index": 2.01
  },
  {
    "VARIANT_DESIGNATION": "V22H",
    "protein stability index": 1.85
  },
  {
    "VARIANT_DESIGNATION": "E18R",
    "protein stability index": 2.67
  },
  {
    "VARIANT_DESIGNATION": "M23H",
    "protein stability index": 2.24
  },
  {
    "VARIANT_DESIGNATION": "L8K",
    "protein stability index": 3.98
  },
  {
    "VARIANT_DESIGNATION": "A1K",
    "protein stability index": 2.58
  },
  {
    "VARIANT_DESIGNATION": "V17G",
    "protein stability index": 3.71
  },
  {
    "VARIANT_DESIGNATION": "E6A",
    "protein stability index": 1.83
  },
  {
    "VARIANT_DESIGNATION": "N10P",
    "protein stability index": 3.37
  },
  {
    "VARIANT_DESIGNATION": "E16D",
    "protein stability index": 3.2
  },
  {
    "VARIANT_DESIGNATION": "L8P",
    "protein stability index": 4.09
  },
  {
    "VARIANT_DESIGNATION": "I15T",
    "protein stability index": 4.25
  },
  {
    "VARIANT_DESIGNATION": "E6I",
    "protein stability index": 2.69
  },
  {
    "VARIANT_DESIGNATION": "M20T",
    "protein stability index": 3.4
  },
  {
    "VARIANT_DESIGNATION": "E12L",
    "protein stability index": 1.7
  },
  {
    "VARIANT_DESIGNATION": "E6D",
    "protein stability index": 2.8
  },
  {
    "VARIANT_DESIGNATION": "A5M",
    "protein stability index": 2.58
  },
  {
    "VARIANT_DESIGNATION": "E16R",
    "protein stability index": 1.83
  },
  {
    "VARIANT_DESIGNATION": "T3H",
    "protein stability index": 2.24
  },
  {
    "VARIANT_DESIGNATION": "C11P",
    "protein stability index": 3.49
  },
  {
    "VARIANT_DESIGNATION": "F2N",
    "protein stability index": 3.95
  },
  {
    "VARIANT_DESIGNATION": "M4F",
    "protein stability index": 2.51
  },
  {
    "VARIANT_DESIGNATION": "M4C",
    "protein stability index": 3.13
  },
  {
    "VARIANT_DESIGNATION": "G24K",
    "protein stability index": 2.31
  },
  {
    "VARIANT_DESIGNATION": "N10F",
    "protein stability index": 2.53
  },
  {
    "VARIANT_DESIGNATION": "T3K",
    "protein stability index": 2.03
  },
  {
    "VARIANT_DESIGNATION": "F2W",
    "protein stability index": 2.07
  },
  {
    "VARIANT_DESIGNATION": "E12R",
    "protein stability index": 1.71
  },
  {
    "VARIANT_DESIGNATION": "A1R",
    "protein stability index": 2.84
  },
  {
    "VARIANT_DESIGNATION": "E18F",
    "protein stability index": 3.08
  },
  {
    "VARIANT_DESIGNATION": "M23R",
    "protein stability index": 1.97
  },
  {
    "VARIANT_DESIGNATION": "G24A",
    "protein stability index": 2.03
  },
  {
    "VARIANT_DESIGNATION": "N10T",
    "protein stability index": 2.19
  },
  {
    "VARIANT_DESIGNATION": "E18N",
    "protein stability index": 3.43
  },
  {
    "VARIANT_DESIGNATION": "A9N",
    "protein stability index": 2.49
  },
  {
    "VARIANT_DESIGNATION": "R13N",
    "protein stability index": 3.75
  },
  {
    "VARIANT_DESIGNATION": "F2H",
    "protein stability index": 3.48
  },
  {
    "VARIANT_DESIGNATION": "N10A",
    "protein stability index": 1.84
  },
  {
    "VARIANT_DESIGNATION": "E12V",
    "protein stability index": 1.8
  },
  {
    "VARIANT_DESIGNATION": "N7L",
    "protein stability index": 2.48
  },
  {
    "VARIANT_DESIGNATION": "N7P",
    "protein stability index": 3.41
  },
  {
    "VARIANT_DESIGNATION": "A5Y",
    "protein stability index": 2.71
  },
  {
    "VARIANT_DESIGNATION": "T3L",
    "protein stability index": 1.77
  },
  {
    "VARIANT_DESIGNATION": "V22P",
    "protein stability index": 2.65
  },
  {
    "VARIANT_DESIGNATION": "E16A",
    "protein stability index": 1.99
  },
  {
    "VARIANT_DESIGNATION": "E16M",
    "protein stability index": 2.92
  },
  {
    "VARIANT_DESIGNATION": "A9W",
    "protein stability index": 1.39
  },
  {
    "VARIANT_DESIGNATION": "M20R",
    "protein stability index": 2.16
  }
]
